I'd be grateful if you could share measured Dmax for these entries.
MEASUREMENT TARGET: KRAS G12V protein in SW900 cells (Homo sapiens, UniProt P01116, G12V)
Construct: endogenous in cells; host or cells: SW900
Sequence (P01116 1-188 isoform P01116-2 G12V): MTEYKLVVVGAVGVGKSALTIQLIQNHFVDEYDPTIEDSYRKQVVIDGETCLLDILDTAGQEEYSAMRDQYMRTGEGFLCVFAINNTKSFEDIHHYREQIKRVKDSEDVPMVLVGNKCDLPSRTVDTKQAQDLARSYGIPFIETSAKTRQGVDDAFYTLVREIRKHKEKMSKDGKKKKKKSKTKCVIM
EXPERIMENT DESCRIPTION: KRAS degradation assay (Western Blot) in SW900 cells
Type: cell-based
TEST SETTINGS: 24 h
Description: Test Example 5: KRAS G12C, KRAS G12D, KRAS G12V, KRAS G13D, and KRAS WT (Expanded) Degradation Assays […] After the samples of the cell lysate supernatants that had been prepared were thawed from the refrigerator at −80° C., the total protein concentrations of the cell lysates were determined using a BCA protein quantification kit (Tiangen). […]

Q: Dmax lookup needed for C#Cc1c(F)ccc2cc(O)cc(-c3ncc4c(N5CCC[C@@H](O)C5)nc(OCC5(CN6CCN(CC7CCC8(CC7)CCN(C(=O)c7ccc(C)c(N9CCC(=O)NC9=O)c7)CC8)CC6)CC5)nc4c3F)c12 [Example 45] , thanks.
Ans: 80 to 100%

Q: Please give the result for C#Cc1cccc2cc(O)cc(-c3ncc4c(N5CCCOCC5)nc(OCC5(CN6CCN(CC7CCC8(CC7)CCN(C(=O)c7ccc(OC)c(N9CCC(=O)NC9=O)c7)CC8)CC6)CC5)nc4c3F)c12 [Example 39] too.
Ans: 80 to 100%

Q: Consider next the compound C#Cc1c(F)ccc2cc(O)cc(-c3ncc4c(N5CCC[C@@](C)(O)C5)nc(OCC5(CN6CCN(CCC7CCC8(CC7)CCN(C(=O)c7ccc(Cl)c(N9CCC(=O)NC9=O)c7)CC8)CC6)CC5)nc4c3F)c12 [Example 9] in the same way.
Ans: 80 to 100%

Q: Next record, please: C#Cc1c(F)ccc2cc(O)cc(-c3ncc4c(N5CCC[C@@](C)(O)C5)nc(OCC5(CN6CCN(CC7CCC8(CC7)CCN(C(=O)c7ccc(C)c(N9CCC(=O)NC9=O)c7)CC8)CC6)CC5)nc4c3F)c12 [Example 6]
Ans: 80 to 100%

Q: # repeat for CCc1cccc2cc(O)cc(-c3ccc4c(N5CCC[C@@](C)(O)C5)nc(OCC5(CN6CCN(CC7CCC8(CC7)CCN(C(=O)c7ccc(C)c(N9CCC(=O)NC9=O)c7)CC8)CC6)CC5)nc4c3F)c12 [Example 49]
Ans: 75.3%
